The measurements presented in this section are drawn from patent US20230233569A1.

molecular target: KRAS G13C (Homo sapiens, UniProt P01116+P62937, G13C); test: Ras-Raf disruption / FRET / MOA assay (BRAF RBD); type: biochemical; conditions: Ras-Raf disruption, with Cyclophilin A; read-out: KRAS G13C FRET data IC50
Sequence (P01116 1-169 isoform P01116-2 G13C limits assumed): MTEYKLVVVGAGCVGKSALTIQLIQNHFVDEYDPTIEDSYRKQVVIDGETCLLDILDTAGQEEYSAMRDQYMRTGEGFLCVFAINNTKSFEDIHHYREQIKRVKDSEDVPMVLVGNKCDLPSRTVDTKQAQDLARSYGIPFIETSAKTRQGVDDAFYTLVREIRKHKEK
Sequence (P62937 whole entry): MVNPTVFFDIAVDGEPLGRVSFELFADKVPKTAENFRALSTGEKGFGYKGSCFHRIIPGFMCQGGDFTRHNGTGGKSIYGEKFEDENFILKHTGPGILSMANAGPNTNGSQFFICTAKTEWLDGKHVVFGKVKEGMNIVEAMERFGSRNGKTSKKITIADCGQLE
Known IC50 of a selection of molecules

Molecule	IC50
CCn1c(-c2cccnc2[C@H](C)OC)c2c3cc(ccc31)-c1cc(O)cc(c1)C[C@H](NC(=O)[C@H](C(C)C)N(C)C(=O)N1CCCN(C(=O)[C@H]3CN3)CC1)C(=O)N1CCC[C@H](N1)C(=O)OCC(C)(C)C2 (atropisomer, axis not shown) [Example 190]	10 to 100 nM
CCn1c(-c2cnccc2COC)c2c3cc(ccc31)-c1cccc(c1)C[C@H](NC(=O)[C@H](C(C)C)N(C)C(=O)CCN=C=NCc1ccc(OC)cc1OC)C(=O)N1CCC[C@H](N1)C(=O)OCC(C)(C)C2 [61 A and B]	> 10000 nM
CCn1c(-c2cccnc2[C@H](C)OC)c2c3cc(ccc31)-c1cc(O)cc(c1)C[C@H](NC(=O)[C@H](C(C)C)N(C)C(=O)CN(C)C(=O)[C@H]1C[C@@H]3N[C@@H]3C1)C(=O)N1CCC[C@H](N1)C(=O)OCC(C)(C)C2 (atropisomer, axis not shown) [Example 285]	< 10 nM
CCn1c(-c2cccnc2[C@H](C)OC)c2c3cc(ccc31)-c1cc(O)cc(c1)C[C@H](NC(=O)[C@H](C(C)C)N(C)C(=O)[C@H]1CN1)C(=O)N1CCC[C@H](N1)C(=O)OCC(C)(C)C2 [Example 112]	10 to 100 nM
CCn1c(-c2cccnc2[C@H](C)OC)c2c3cc(ccc31)-c1csc(n1)C[C@H](NC(=O)[C@H](C(C)C)N(C)C(=O)N(C)CC1CN(C(=O)[C@@H]3CN3)C1)C(=O)N1CCC[C@H](N1)C(=O)OCC(C)(C)C2 (atropisomer, axis not shown) [Example 294]	100 to 1000 nM
CCn1c(-c2cccnc2[C@H](C)OC)c2c3cc(ccc31)-c1cccc(c1)C[C@H](NC(=O)[C@H](C(C)C)N(C)C(=O)[C@H]1CC[C@H](N=C=NC(C)(C)C)C1)C(=O)N1CCC[C@H](N1)C(=O)OCC(C)(C)C2 [Example 125]	100 to 1000 nM
CCn1c(-c2cccnc2[C@H](C)OC)c2c3cc(ccc31)-c1cc(O)cc(c1)C[C@H](NC(=O)[C@H](C(C)C)N(C)C(=O)[C@@]1(F)CCN(C(=O)[C@H]3CN3)C1)C(=O)N1CCC[C@H](N1)C(=O)OCC(C)(C)C2 [Example 171]	10 to 100 nM
CCn1c(-c2cccnc2[C@H](C)OC)c2c3cc(ccc31)-c1csc(n1)C[C@H](NC(=O)[C@H](C(C)C)N(C)C(=O)N(C)[C@H]1CCN(C(=O)[C@@H]3CN3)C1)C(=O)N1CCC[C@H](N1)C(=O)OCC(C)(C)C2 (atropisomer, axis not shown) [Example 310]	100 to 1000 nM
